Could you please report measured IC50 for the items listed next?
Target: CDK4/Cyclin D1 (Homo sapiens (Human), UniProt P11802)
Sequence (P11802 whole entry): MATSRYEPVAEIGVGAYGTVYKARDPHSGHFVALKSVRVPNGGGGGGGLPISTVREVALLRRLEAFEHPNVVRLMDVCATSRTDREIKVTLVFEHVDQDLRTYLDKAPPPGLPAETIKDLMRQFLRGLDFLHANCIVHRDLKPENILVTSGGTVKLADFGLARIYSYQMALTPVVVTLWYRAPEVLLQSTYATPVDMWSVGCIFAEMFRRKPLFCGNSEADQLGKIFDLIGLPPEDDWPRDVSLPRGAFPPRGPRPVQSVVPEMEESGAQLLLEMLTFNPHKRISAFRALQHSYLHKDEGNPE
Sequence (P24385 whole entry partner): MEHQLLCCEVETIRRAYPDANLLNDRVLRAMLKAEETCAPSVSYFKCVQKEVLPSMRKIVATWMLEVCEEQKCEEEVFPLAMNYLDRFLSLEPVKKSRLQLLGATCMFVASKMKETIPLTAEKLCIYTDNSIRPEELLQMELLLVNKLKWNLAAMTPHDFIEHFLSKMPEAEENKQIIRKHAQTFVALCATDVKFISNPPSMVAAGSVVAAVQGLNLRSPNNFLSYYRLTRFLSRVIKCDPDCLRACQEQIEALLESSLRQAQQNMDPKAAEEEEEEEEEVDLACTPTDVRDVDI
Experiment: CDK4/Cyclin D1 CHEF Assay (AQT0258 peptide)
Assay type: biochemical
Settings: 200 uM ATP, read-out: CDK4/ CyclinD1 AQT IC50

Below are some compounds; for each one, tell me its IC50.
1. Cc1cc2cnc(NC3CCN(S(=O)(=O)C4(C)CC4)CC3)nc2c(N2CCC3(CN(C)C3)C2)n1 [Compound 59]
2. Cc1cc2cnc(NC3CCN(S(C)(=O)=O)CC3)nc2c(N2CCC3(C2)CC3(F)F)n1 (stereo not drawn) [Compound 41]
3. Cc1cc2cnc(Nc3cc4c(cc3F)CN(S(C)(=O)=O)C4)nc2c(N2CC3(CCNC3)C2)n1 [Example 39]
4. Cc1cc2cnc(NC3CCN(S(C)(=O)=O)CC3)nc2c(N2CCC3(C2)CC(F)(F)C3)n1 [Compound 53]
5. Cc1cc2cnc(Nc3ccc4c(c3)CN(S(C)(=O)=O)C4)nc2c(N2CC3(CN(C)C3)C2)n1 [Compound 27]
6. Cc1cc2cnc(NC3CCN(S(C)(=O)=O)CC3)nc2c(N2CC3(CN(C)CC3(F)F)C2)n1 [Compound 101]
7. Cc1cc2cnc(NC3CCN(S(C)(=O)=O)CC3)nc2c(N2CC3(CCC(=O)NC3)C2)n1 [Compound 82]

1. < 200 nM
2. < 200 nM
3. 200 to 500 nM
4. < 200 nM
5. 500 to 2000 nM
6. < 200 nM
7. 200 to 500 nM

Provide each entry's IC50 from the list below.
1. Cc1cc2cnc(Nc3cnn(C4CC5(C4)CN(C)C5)c3)nc2c(N2CC3(C2)CN(S(C)(=O)=O)C3)n1 [Compound 26]
2. Cc1cc2cnc(Nc3ccc(N4CC5(CN(C)C5)C4)cc3)nc2c(N2CC3(C2)CS(=O)(=O)C3)n1 [Compound 30]

200 to 500 nM
200 to 500 nM

====

Biological target: CDK1/Cyclin B1 (Homo sapiens (Human), UniProt P06493)
Sequence (P06493 whole entry): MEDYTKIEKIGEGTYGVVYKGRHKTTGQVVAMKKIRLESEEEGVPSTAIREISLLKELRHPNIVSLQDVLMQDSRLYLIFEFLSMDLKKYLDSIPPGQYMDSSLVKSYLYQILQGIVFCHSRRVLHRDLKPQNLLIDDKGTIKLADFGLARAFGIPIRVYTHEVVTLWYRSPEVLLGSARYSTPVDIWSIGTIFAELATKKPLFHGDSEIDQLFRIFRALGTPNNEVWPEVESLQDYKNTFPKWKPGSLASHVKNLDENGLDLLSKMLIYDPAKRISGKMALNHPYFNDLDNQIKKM
Sequence (P14635 whole entry partner): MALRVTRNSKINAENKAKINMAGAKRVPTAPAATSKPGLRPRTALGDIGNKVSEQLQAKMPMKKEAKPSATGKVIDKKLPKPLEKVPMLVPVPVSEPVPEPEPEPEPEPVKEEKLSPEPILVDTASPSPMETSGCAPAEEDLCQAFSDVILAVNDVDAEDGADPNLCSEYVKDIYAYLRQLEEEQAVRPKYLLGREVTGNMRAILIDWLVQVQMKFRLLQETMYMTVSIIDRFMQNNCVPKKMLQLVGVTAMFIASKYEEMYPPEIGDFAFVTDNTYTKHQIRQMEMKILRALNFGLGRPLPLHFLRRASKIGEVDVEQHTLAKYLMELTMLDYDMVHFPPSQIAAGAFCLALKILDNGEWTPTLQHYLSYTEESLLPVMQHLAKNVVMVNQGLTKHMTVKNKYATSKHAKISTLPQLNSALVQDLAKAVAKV
Assay: CDK1/Cyclin B1 ADP-Glo Kinase Assay
Type: biochemical
Details: ADP-Glo, 80 uM ATP; read-out: CDK1 Cyclin B1 IC50
pIC50: −log10 of the molar value.
Consider the following compounds; for each one, report its pIC50.

Check out these entries, answers already filled in.
{"compound": "Cc1cc2cnc(NC3CCN(S(=O)(=O)C4CC4)CC3)nc2c(N2CC(O)(C3CC3)C2)n1 [Compound 56]", "system under test": "CDK1/Cyclin B1 (Homo sapiens (Human), UniProt P06493)", "pIC50": "> 6.70"}
{"compound": "Cc1cc2cnc(NC3CCN(S(=O)(=O)CCC4(C)CC4)CC3)nc2c(N2CC(F)(F)C3(CNC3)C2)n1 [Compound 67]", "system under test": "CDK1/Cyclin B1 (Homo sapiens (Human), UniProt P06493)", "pIC50": "6.30 to 6.70"}
{"compound": "O=S(=O)(CC1CCC1)N1CCC(Nc2ncc3cc(C(F)F)nc(N4CC5(CCNC5)C4)c3n2)CC1 [Compound 55]", "system under test": "CDK1/Cyclin B1 (Homo sapiens (Human), UniProt P06493)", "pIC50": "> 6.70"}
{"compound": "CCN1CC2(C1)CN(c1ccc(Nc3ncc4ccnc(N5CCC6(C5)CC6(F)F)c4n3)nc1)C2 (stereo not drawn) [Compound 21]", "system under test": "CDK1/Cyclin B1 (Homo sapiens (Human), UniProt P06493)", "pIC50": "< 5.70"}

Please supply pIC50 for each of the following items, keeping them in order.
1. Cc1cc2cnc(NC3CCN(S(C)(=O)=O)CC3)nc2c(N2CC3(CN(C)CC3(F)F)C2)n1 [Compound 101]
2. [2H]C([2H])([2H])N1CC2(CN(c3nc(C)cc4cnc(NC5CCN(S(=O)(=O)C6CC6)CC5)nc34)CC2(F)F)C1 [Compound 13]
3. Cc1cc2cnc(Nc3ccc(N4CC5(CN(C)C5)C4)cc3)nc2c(N2CC3(C2)CS(=O)(=O)C3)n1 [Compound 30]
4. Cc1cc2cnc(N[C@H]3CC[C@H](CN(C)C)CC3)nc2c(N2CCC3(C2)CC3(F)F)n1 (stereo partly drawn) [Compound 40]
5. Cc1cc2cnc(NC3CCN(S(=O)(=O)C4(C)CC4)CC3)nc2c(C2CC(C)(O)C2)n1 (stereo not drawn) [Compound 63]
6. CS(=O)(=O)N1CCC(Nc2ncc3ccnc(N4CCC5(CCOCC5)C4)c3n2)CC1 [Compound 7]

1. 6.30 to 6.70
2. > 6.70
3. < 5.70
4. < 5.70
5. < 5.70
6. 6.30 to 6.70

// for each compound in input: emit pIC50
1. Cc1cc2cnc(NC3CCN(S(=O)(=O)C4CC4)CC3)nc2c(N2CC3(CNC3)C2)n1 [Compound 32]
2. Cc1cc2cnc(NC3CCN(S(=O)(=O)C4CC4)CC3)nc2c(N2CC(CS(C)(=O)=O)C2)n1 [Compound 74]
3. Cc1cc2cnc(NC3CCN(S(C)(=O)=O)CC3)nc2c(N2CCC3(CCC3(F)F)C2)n1 (stereo not drawn) [Compound 52]
4. Cc1cc2cnc(Nc3cnn(C4CC5(C4)CN(C)C5)c3)nc2c(N2CC3(C2)CN(S(C)(=O)=O)C3)n1 [Compound 26]
5. CS(=O)(=O)N1CCC(Nc2ncc3ccnc(N4CCC5(C4)CC5(F)F)c3n2)CC1 (stereo not drawn) [Compound 3]
6. Cc1cc2cnc(NC3CCN(S(C)(=O)=O)CC3)nc2c(N2CC3(C2)CN(C2CC2)C3)n1 [Compound 42]

5.70 to 6.30
5.70 to 6.30
> 6.70
< 5.70
> 6.70
< 5.70

Hi team, please reply with pIC50 for each item in this list.
1. CN1C[C@@H]2[C@H](C1)[C@H]2Nc1ncc2ccnc(N3CCC4(C3)CC4(F)F)c2n1 (stereo partly drawn) [Compound 17]
2. Cc1cc2cnc(NC3CCN(S(C)(=O)=O)CC3)nc2c(C2CC3(C2)CN(C)CCO3)n1 (stereo not drawn) [Compound 84]

< 5.70
6.30 to 6.70
